Biological target: GTPase HRas (Homo sapiens)
Experiment: Ras wt fluorescent GTP loading blockade – biochemical, wildtype, multiplex bead flow cytometry, dose response (AID 1335)
Conditions: bead-based flow cytometry, Bodipy-GTP binding to GST-Ras; at 100 µM (top of the series) unless noted
PARAMETER: GTP binding, percent of control (%)
Numbers only; they are read as %.

Bench note, GTPase HRas (Homo sapiens): entry O=C(CSc1ncnc2scc(-c3ccccc3)c12)N1CCN(Cc2ccc3c(c2)OCO3)CC1 , its GTP binding, percent of control = 63.6

Bench note, GTPase HRas (Homo sapiens): entry Cc1ccc(OCCn2c(SCCC(=O)O)nc3ccccc32)cc1 , its GTP binding, percent of control = 88.9

Bench note, GTPase HRas (Homo sapiens): entry COc1cc(/C=N/Nc2ccc(S(N)(=O)=O)cc2)cc(OC)c1OC , its GTP binding, percent of control = 75.4

Bench note, GTPase HRas (Homo sapiens): entry Cc1n[nH]c(=S)c2nn(-c3cccc(Cl)c3)c(C)c12 , its GTP binding, percent of control = 71.1

Bench note, GTPase HRas (Homo sapiens): entry C=CCc1ccc(OCc2ccc(C(=O)O)o2)c(OC)c1 , its GTP binding, percent of control = 86.5

Bench note, GTPase HRas (Homo sapiens): entry COc1ccc(CNCc2ccc(C(=O)O)s2)cc1 , its GTP binding, percent of control = 89.4
